Assay: Phase 1a single-dose study in humans, Stage 1: pharmacokinetics
Assay type: in vivo, human
Settings: both sexes, human, plasma, oral; Cohort 3 (200 mg); mean (SD), N 6
property.measured: Cmax (ng/mL)
Report the figure in ng/mL without appending any unit label.

Query: # lookup: Cmax of NC(=O)[C@H]1CCN(c2ncnc(N)c2F)C[C@@H]1N1CCC[C@@H](Nc2cc(Cl)cc(C(F)(F)F)c2)C1=O [Compound 1]
Reply: 5960

###

Assay: Solubility of Compound 2 in solvent systems (slurries, HPLC)
Assay type: physicochemical
Details: organic solvent or mixture, thermodynamic from solid; Methanol/water 90/10; after one day at 20° C.
property.measured: solubility at 1 day (mg/mL)
Report the figure in mg/mL without appending any unit label.

Query: # lookup: solubility at 1 day of NC(=O)[C@H]1CCN(c2ncnc(N)c2F)C[C@@H]1N1CCC[C@@H](Nc2cc(Cl)cc(C(F)(F)F)c2)C1=O [Compound 2]
Reply: 100

These measurements were taken from patent US11174243B2.
